# Test system: HepG2 cells
# protocol: MTT cell viability assay, HepG2
# Format: cell-based, Human
# measurement_conditions: Homo sapiens, HepG2; MTT, 72 hours; read-out: IC50 values, HepG2
Item-by-item account of IC50

smiles_code	target_entity	IC50
CC(=O)O[C@@H]1[C@@H](OC(C)=O)[C@@H](O)[C@H](Oc2cc(O)c3c(c2)C(=O)c2cc(C)cc(O)c2C3=O)O[C@H]1C	HepG2 cells	1.32 µg/mL
CC(=O)O[C@@H]1[C@@H](O)[C@H](C)O[C@@H](Oc2cc(O)c3c(c2)C(=O)c2cc(C)cc(O)c2C3=O)[C@@H]1OC(C)=O	HepG2 cells	> 20 µg/mL
CC(=O)O[C@@H]1[C@@H](O[C@@H]2O[C@@H](C)[C@H](O)[C@@H](OC(C)=O)[C@H]2OC(C)=O)[C@H](C)O[C@@H](Oc2cc(O)c3c(c2)C(=O)c2cc(C)cc(O)c2C3=O)[C@@H]1OC(C)=O	HepG2 cells	0.65 µg/mL
CC(=O)O[C@@H]1[C@@H](O)[C@@H](OC(C)=O)[C@H](Oc2cc(O)c3c(c2)C(=O)c2cc(C)cc(O)c2C3=O)O[C@H]1C	HepG2 cells	> 20 µg/mL
COc1cc(C)cc2c1C(=O)c1c(OC)cc(O[C@@H]3O[C@@H](C)[C@H](O)[C@@H](OC(C)=O)[C@H]3OC(C)=O)cc1C2=O	HepG2 cells	4.43 µg/mL
